Target of assay: human Kv7.2+3 (Homo sapiens, UniProt O43525+O43526)
Assay remarks: FLIPR-based thallium influx characterization of Kv7.2+3 modulators
Assay setup: HEK293 cells over-expressing human Kv7.2+3; Tl+ influx, BTC-AM, FLIPR; 50% of channel activity compared to retigabine control responses
Measured property: EC50 (nM)

INSERT INTO results (compound, measured_property, unit_annotation, recorded_value) VALUES
  ('O=C(CCc1ccccc1)Nn1c(N2CCCC2)nc2ccccc2c1=O', 'EC50', 'nM', 660),
  ('CN(C)c1nc2cc(F)ccc2c(=O)n1NC(=O)CCc1cccc(F)c1', 'EC50', 'nM', 2500);

(a) O=C(CCc1cccc(F)c1)Nn1c(N2CCCC2)nc2cccc(F)c2c1=O
(b) O=C(CSc1ccc(F)cc1)Nn1c(N2CCCC2)nc2ccccc2c1=O
(c) CCN(C)c1nc2cc(F)ccc2c(=O)n1NC(=O)[C@@H]1C[C@@H]1c1ccc(Cl)cc1 (relative stereo)
(d) O=C(CCc1cc(F)cc(F)c1)Nn1c(N2CCCC2)nc2cc(F)cc(F)c2c1=O
(e) O=C(CCc1cccc(F)c1)Nn1c(N2CCCC2)nc2cc(F)cc(F)c2c1=O
**Q:** Rank the 5 compounds: largest EC50 first, smallest last. Your reply should list the labels following the order given in the request.
**A:** b, c, a, e, d

* * *

Target of assay: human Kv7.2+3 (Homo sapiens, UniProt O43525+O43526)
Construct: expressed in transfected cells; host or cells: HEK293
Assay remarks: FLIPR-based thallium influx characterization of Kv7.2+3 modulators
Format: cell-based
Assay setup: maximal response relative to the reference (retigabine) response; HEK293 human Kv7.2+3, Tl+ influx FLIPR; read-out: Efficacy
Procedure: This experiment determines the ability of a test compound to modulate the activity of Kv7.2+3 channels heterologously expressed in human HEK293 cells. The ability is determined relative to retigabine. The activity is determined using a standard thallium (I) sensitive assay, e.g. using a fluorometric method in a Fluorescent Image Plate Reader (FLIPR) as described below in more detail. Full concentration/response curves are generated and EC50 values are calculated based on max values. […]
Measured property: Emax (%)

Examples from the recorded data:
INSERT INTO assay_data (compound, target_of_assay, recorded_value) VALUES
  ('O=C(CCc1cccc(F)c1)Nn1c(N2CCCC2)nc2cc(F)cc(F)c2c1=O [Compound 1.12]', 'human Kv7.2+3 (Homo sapiens, UniProt O43525+O43526)', 122),
  ('CN(Cc1ccccc1)c1nc2ccccc2c(=O)n1NC(=O)CCc1cccc(F)c1 [Compound 1.3]', 'human Kv7.2+3 (Homo sapiens, UniProt O43525+O43526)', 118),
  ('O=C(CCc1ccccc1)Nn1c(N2CCCC2)nc2ccccc2c1=O [Compound 1.6]', 'human Kv7.2+3 (Homo sapiens, UniProt O43525+O43526)', 96),
  ('O=C(CCc1cc(F)cc(F)c1)Nn1c(N2CCCC2)nc2cc(F)cc(F)c2c1=O [Compound 1.15]', 'human Kv7.2+3 (Homo sapiens, UniProt O43525+O43526)', 112),
  ('O=C(CCc1cccc(F)c1)Nn1c(N2CCCC2)nc2cccc(F)c2c1=O [Compound 1.10]', 'human Kv7.2+3 (Homo sapiens, UniProt O43525+O43526)', 100);

(P) CC(CC(=O)Nn1c(N2CCCC2)nc2ccccc2c1=O)c1ccc(Cl)cc1 (stereo not shown) [Compound 1.17]
(Q) CC(C)(C)c1ccc(SCC(=O)Nn2c(N3CCCC3)nc3ccccc3c2=O)cc1 [Compound 1.13]
(R) O=C(CCc1cccc(F)c1)Nn1c(N2CCCC2)nc2cc(F)ccc2c1=O [Compound 1.1]
**Q:** # rank by Emax, ascending (min first) Your reply should list the labels following the order given in the request.
**A:** Q, P, R

* * *

Target of assay: human Kv7.2+3 (Homo sapiens, UniProt O43525+O43526)
Construct: expressed in transfected cells; host or cells: HEK293
Assay remarks: FLIPR-based thallium influx characterization of Kv7.2+3 modulators
Format: cell-based
Assay setup: maximal response relative to the reference (retigabine) response; HEK293 human Kv7.2+3, Tl+ influx FLIPR; read-out: Efficacy
Measured property: Emax (%)

Examples from the recorded data:
INSERT INTO measurements (molecule, unit_annotation, recorded_value) VALUES
  ('O=C(CCc1cccc(F)c1)Nn1c(N2CCCC2)nc2ccccc2c1=O', '%', 148),
  ('COCCN(C)c1nc2ccccc2c(=O)n1NC(=O)CCc1cccc(F)c1', '%', 130);

(A) CC(C)N(C)c1nc2cc(F)cc(F)c2c(=O)n1NC(=O)[C@@H]1C[C@@H]1c1ccc(Cl)cc1 (relative stereo)
(B) C[C@@H](CC(=O)Nn1c(N2CCCC2)nc2cc(F)cc(F)c2c1=O)c1ccccc1
(C) CN(Cc1ccccc1)c1nc2ccccc2c(=O)n1NC(=O)CCc1cc(F)cc(F)c1
**Q:** Rank the 3 molecules: largest Emax first, smallest last. Your reply should list the labels following the order given in the request.
**A:** A, B, C
(A: 116%, B: 68%, C: 40%)

* * *

Target of assay: human Kv7.2+3 (Homo sapiens, UniProt O43525+O43526)
Construct: expressed in transfected cells; host or cells: HEK293
Assay remarks: FLIPR-based thallium influx characterization of Kv7.2+3 modulators
Format: cell-based
Assay setup: maximal response relative to the reference (retigabine) response; HEK293 human Kv7.2+3, Tl+ influx FLIPR; read-out: Efficacy
Method: This experiment determines the ability of a test compound to modulate the activity of Kv7.2+3 channels heterologously expressed in human HEK293 cells. The ability is determined relative to retigabine. The activity is determined using a standard thallium (I) sensitive assay, e.g. using a fluorometric method in a Fluorescent Image Plate Reader (FLIPR) as described below in more detail. Full concentration/response curves are generated and EC50 values are calculated based on max values. […]
Measured property: Emax (%)

INSERT INTO assay_data (compound, target_of_assay, measured_property, recorded_value) VALUES
  ('CN(C)c1nc2cc(F)ccc2c(=O)n1NC(=O)CCc1cccc(F)c1 [Compound 1.7]', 'human Kv7.2+3 (Homo sapiens, UniProt O43525+O43526)', 'Emax', 112),
  ('CCN(C)c1nc2cc(F)cc(F)c2c(=O)n1NC(=O)[C@@H]1C[C@@H]1c1ccc(Cl)cc1 (relative stereo) [Compound 2.6]', 'human Kv7.2+3 (Homo sapiens, UniProt O43525+O43526)', 'Emax', 110);

(A) CN(C)c1nc2cc(F)ccc2c(=O)n1NC(=O)[C@@H]1C[C@@H]1c1ccc(Cl)cc1 (relative stereo) [Compound 2.1]
(B) O=C(COc1ccccc1)Nn1c(N2CCCC2)nc2ccccc2c1=O [Compound 1.9]
**Q:** Endpoint returns whichever of A and B has the numerically higher Emax. # answer = label of selected item
**A:** A

* * *

Target of assay: human Kv7.2+3 (Homo sapiens, UniProt O43525+O43526)
Construct: expressed in transfected cells; host or cells: HEK293
Assay remarks: FLIPR-based thallium influx characterization of Kv7.2+3 modulators
Type: cell-based
Assay setup: HEK293 cells over-expressing human Kv7.2+3; Tl+ influx, BTC-AM, FLIPR; 50% of channel activity compared to retigabine control responses
Description: This experiment determines the ability of a test compound to modulate the activity of Kv7.2+3 channels heterologously expressed in human HEK293 cells. The ability is determined relative to retigabine. The activity is determined using a standard thallium (I) sensitive assay, e.g. using a fluorometric method in a Fluorescent Image Plate Reader (FLIPR) as described below in more detail. Full concentration/response curves are generated and EC50 values are calculated based on max values. […]
pEC50: −log10 of the molar value.
Measured property: pEC50

Examples from the recorded data:
INSERT INTO results (compound, measured_property, recorded_value) VALUES
  ('CN(C)c1nc2cc(F)ccc2c(=O)n1NC(=O)[C@@H]1C[C@@H]1c1ccc(Cl)cc1 (relative stereo)', 'pEC50', 5.85),
  ('O=C(COc1ccccc1)Nn1c(N2CCCC2)nc2ccccc2c1=O', 'pEC50', 4.92),
  ('CC(C)N(C)c1nc2cc(F)cc(F)c2c(=O)n1NC(=O)[C@@H]1C[C@@H]1c1ccc(Cl)cc1 (relative stereo)', 'pEC50', 6.35),
  ('C[C@@H](CC(=O)Nn1c(N2CCCC2)nc2cc(F)cc(F)c2c1=O)c1ccccc1', 'pEC50', 8.55),
  ('CN(Cc1ccccc1)c1nc2ccccc2c(=O)n1NC(=O)CCc1cccc(F)c1', 'pEC50', 5.80);

(A) CC(C)N(C)c1nc2cc(F)ccc2c(=O)n1NC(=O)[C@@H]1C[C@@H]1c1ccc(Cl)cc1 (relative stereo)
(B) CN(Cc1ccccc1)c1nc2ccccc2c(=O)n1NC(=O)CCc1cc(F)cc(F)c1
(C) O=C(CCc1cccc(F)c1)Nn1c(N2CCCC2)nc2ccccc2c1=O
(D) CC(CC(=O)Nn1c(N2CCCC2)nc2ccccc2c1=O)c1cccc(F)c1 (centres unmarked)
**Q:** # rank by pEC50, ascending (min first) Your reply should list the labels following the order given in the request.
**A:** B, A, C, D
